For each of the compounds below, state its inhibition at 1 µM.
experimental.system: σ2 receptor (Rattus norvegicus)
Construct: The thawed rat liver membrane preparation; tissue Harlan-Winkelmann, Borchen, Germany (animal organs); host or cells: rat liver membrane homogenate
Sequence (Q5U3Y7 1-176): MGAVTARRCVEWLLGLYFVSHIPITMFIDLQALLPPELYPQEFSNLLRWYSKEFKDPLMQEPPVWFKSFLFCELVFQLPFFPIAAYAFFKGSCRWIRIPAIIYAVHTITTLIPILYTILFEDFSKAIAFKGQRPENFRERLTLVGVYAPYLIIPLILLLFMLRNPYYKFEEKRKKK
assay.explanation: σ2 receptor binding assay, radioligand [3H]di-o-tolylguanidine, rat liver membrane preparation
particulars: test compound concentration of 1 µM
// units = %; emit number, no label

Problem: Lab note: need inhibition at 1 µM for COc1ccc(C)cc1NC(=O)OC1CC23CCCCC2(CC(NCCO)C3)C1 (stereo not drawn) [8-anti-4s] on σ2 receptor (Rattus norvegicus), anyone have it?
Result: 0

Problem: Lab note: need inhibition at 1 µM for c1ccc(CNC2CC34CCCCC3(CCC4)C2)cc1 (stereo not drawn) on σ2 receptor (Rattus norvegicus), anyone have it?
Result: 39

Problem: Lab note: need inhibition at 1 µM for COc1ccc(C)cc1NC(=O)OC1CC23CCCCC2(CC(NCCCN)C3)C1 (stereo not drawn) [8-anti-4r] on σ2 receptor (Rattus norvegicus), anyone have it?
Result: 0

Problem: Lab note: need inhibition at 1 µM for COc1ccc(C)cc1NC(=O)OC1CC23CCCCC2(CC(NCc2ccc(Cl)cc2)C3)C1 (stereo not drawn) [8-anti-4c] on σ2 receptor (Rattus norvegicus), anyone have it?
Result: 12

Problem: Lab note: need inhibition at 1 µM for COc1ccc(C)cc1NC(=O)OC1CC23CCCCC2(CC(NCc2ccco2)C3)C1 (mixture of isomers) [8-syn-4i] on σ2 receptor (Rattus norvegicus), anyone have it?
Result: 0

Problem: Lab note: need inhibition at 1 µM for OC1CC23CCCCC2(C1)CC(NCc1ccccc1)C3 (mixture of isomers) [11-syn-13] on σ2 receptor (Rattus norvegicus), anyone have it?
Result: 27

Problem: Lab note: need inhibition at 1 µM for COc1ccc(C)cc1NC(=O)OC1CC23CCCCC2(CC(NCc2cc(C(F)(F)F)cc(C(F)(F)F)c2)C3)C1 (stereo not drawn) [8-anti-4f] on σ2 receptor (Rattus norvegicus), anyone have it?
Result: 0

Problem: Lab note: need inhibition at 1 µM for COc1ccc(C)cc1NC(=O)OC1CC23CCCCC2(CC(NCCCc2ccccc2)C3)C1 (stereo not drawn) [8-anti-4q] on σ2 receptor (Rattus norvegicus), anyone have it?
Result: 0

Problem: Lab note: need inhibition at 1 µM for COc1ccc(C)cc1NC(=O)OC1CC23CCCCC2(CC(NCCCCCO)C3)C1 (stereo not drawn) [8-anti-4t] on σ2 receptor (Rattus norvegicus), anyone have it?
Result: 2

---

experimental.system: σ1 receptor (Cavia porcellus)
Construct: thawed membrane preparation of guinea pig brain; tissue Harlan-Winkelmann, Borchen, Germany (animal organs); host or cells: guinea pig brain membrane homogenate
assay.explanation: σ1 receptor binding assay, radioligand [3H]-(+)-pentazocine, guinea pig brain membrane preparation
particulars: [3H]-(+)-pentazocine, guinea pig brain; mean of three experiments (± SEM), values without SEM mean of two; read-out: Ki (nM) σ1
Label key: true (1) means Ki under 800 nM; false (0) means Ki of 800 nM or more.

Problem: Say whether its Ki is strictly beneath 800 nM. Entry: COc1ccc(C)cc1NC(=O)OC1CC23CCCCC2(CC(NCCCCCO)C3)C1 (stereo not drawn) [8-anti-4t]
Result: true (1)

Problem: Say whether its Ki is strictly beneath 800 nM. Entry: c1ccc(CNC2CC34CCCCC3(C2)CC2(C4)OCCO2)cc1 (stereo not drawn) [syn-14]
Result: true (1)

Problem: Say whether its Ki is strictly beneath 800 nM. Entry: c1ccc(CNC2CC34CCCCC3(CCC4)C2)cc1 (centres unmarked) [compound 8]
Result: true (1)

Problem: Say whether its Ki is strictly beneath 800 nM. Entry: CN(C)c1ccc(CNC2CC34CCCCC3(CCC4)C2)cc1 (centres unmarked) [compound 17]
Result: false (0)

Problem: Say whether its Ki is strictly beneath 800 nM. Entry: COc1ccc(C)cc1NC(=O)OC1CC23CCCCC2(CC(NCCc2c[nH]c4ccccc24)C3)C1 (stereo not drawn) [8-syn-4k]
Result: false (0)

Problem: Say whether its Ki is strictly beneath 800 nM. Entry: OC1CC23CCCCC2(C1)CC(NCc1ccccc1)C3 (mixture of isomers) [11-syn-13]
Result: true (1)

Problem: Say whether its Ki is strictly beneath 800 nM. Entry: COc1ccc(C)cc1NC(=O)OC1CC23CCCCC2(CC(NCCc2ccccc2)C3)C1 (stereo not drawn) [8-anti-4p]
Result: true (1)

Problem: Say whether its Ki is strictly beneath 800 nM. Entry: COc1ccc(C)cc1NC(=O)OC1CC23CCCCC2(CC(NCc2ccco2)C3)C1 (mixture of isomers) [8-syn-4i]
Result: true (1)

Problem: Say whether its Ki is strictly beneath 800 nM. Entry: COc1ccc(C)cc1NC(=O)OC1CC23CCCCC2(CC(NCCc2c[nH]c4ccccc24)C3)C1 (stereo not drawn) [8-anti-4k]
Result: false (0)

Problem: Say whether its Ki is strictly beneath 800 nM. Entry: c1ccc(CNC2CC34CCCCC3(C2)CC2(C4)OCCO2)cc1 (stereo not drawn) [anti-14]
Result: false (0)

Problem: Say whether its Ki is strictly beneath 800 nM. Entry: COc1ccc(C)cc1NC(=O)OC1CC23CCCCC2(CC(NCc2ccco2)C3)C1 (mixture of isomers) [8-anti-4i]
Result: false (0)

---

For each of the compounds below, state its inhibition at 1 µM.
experimental.system: σ1 receptor (Cavia porcellus, UniProt Q60492)
Construct: thawed membrane preparation of guinea pig brain; tissue Harlan-Winkelmann, Borchen, Germany (animal organs); host or cells: guinea pig brain membrane homogenate
Sequence (Q60492 whole entry): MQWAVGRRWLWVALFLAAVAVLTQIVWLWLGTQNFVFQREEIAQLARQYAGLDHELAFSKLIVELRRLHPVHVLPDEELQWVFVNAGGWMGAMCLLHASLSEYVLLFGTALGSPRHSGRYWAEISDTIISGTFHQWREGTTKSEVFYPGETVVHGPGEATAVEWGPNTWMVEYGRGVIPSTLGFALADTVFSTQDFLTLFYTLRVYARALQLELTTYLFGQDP
assay.explanation: σ1 receptor binding assay, radioligand [3H]-(+)-pentazocine, guinea pig brain membrane preparation
particulars: test compound concentration of 1 µM
// units = %; emit number, no label

Problem: // lookup inhibition at 1 µM for COc1ccc(C)cc1NC(=O)OC1CC23CCCCC2(CC(NCc2ccc(OC)c(OC)c2)C3)C1 (stereo not drawn) [8-anti-4b]
Result: 6

Problem: // lookup inhibition at 1 µM for COc1ccc(C)cc1NC(=O)OC1CC23CCCCC2(CC(NCCCN)C3)C1 (stereo not drawn) [8-anti-4r]
Result: 16

Problem: // lookup inhibition at 1 µM for COc1ccc(C)cc1NC(=O)NC1CC23CCCCC2(CCC3)C1 (stereo not shown) [23c]
Result: 0

Problem: // lookup inhibition at 1 µM for O=C(Nc1ccc(F)c(F)c1)NC1CC23CCCCC2(CC(O)C3)C1 (stereo not drawn) [anti,anti-26]
Result: 0

Problem: // lookup inhibition at 1 µM for COc1ccc(C)cc1NC(=O)OC1CC23CCCCC2(CC(NCc2ccc(Cl)cc2)C3)C1 (stereo not drawn) [8-anti-4c]
Result: 6

Problem: // lookup inhibition at 1 µM for COc1ccc(C)cc1NC(=O)OC1CC23CCCCC2(CC(NCc2ccc(N(C)C)cc2)C3)C1 (stereo not drawn) [8-anti-4h]
Result: 0

Problem: // lookup inhibition at 1 µM for COc1ccc(NC2CC34CCCCC3(C2)CC(OC(=O)Nc2cc(C)ccc2OC)C4)cc1 (stereo not drawn) [8-anti-4m]
Result: 11

---

For each of the compounds below, state its inhibition of the radioligand binding, σ1.
experimental.system: σ1 receptor (Cavia porcellus, UniProt Q60492)
Construct: thawed membrane preparation of guinea pig brain; tissue Harlan-Winkelmann, Borchen, Germany (animal organs); host or cells: guinea pig brain membrane homogenate
assay.explanation: σ1 receptor binding assay, radioligand [3H]-(+)-pentazocine, guinea pig brain membrane preparation
particulars: test compound concentration of 1 µM; 1 µM
// units = %; emit number, no label

Problem: // lookup inhibition of the radioligand binding, σ1 for O=C1CC23CCCCC2(C1)CC(NC(=O)Nc1ccc(F)c(F)c1)C3 (stereo not drawn) [syn-25]
Result: 10

Problem: // lookup inhibition of the radioligand binding, σ1 for COc1ccc(C)cc1NC(=O)N(Cc1ccccc1)C1CC23CCCCC2(CC(=O)C3)C1 (stereo not drawn) [anti-21]
Result: 5

Problem: // lookup inhibition of the radioligand binding, σ1 for COc1ccc(C)cc1NC(=O)N(Cc1ccccc1)C1CC23CCCCC2(CC(=O)C3)C1 (stereo not drawn) [syn-21]
Result: 13

Problem: // lookup inhibition of the radioligand binding, σ1 for O=C1CC23CCCCC2(C1)CC(NC(=O)Nc1ccc(F)c(F)c1)C3 (stereo not drawn) [anti-25]
Result: 0

---

attribute.measured: melting point

Problem: // lookup melting point for O=C(Nc1ccccc1)NC1CC23CCCCC2(CCC3)C1 (stereo not drawn) [23a]
Result: 134 to 138 °C

Problem: // lookup melting point for O=C(NC1CCCCC1)NC1CC23CCCCC2(CCC3)C1 (stereo not drawn) [23b]
Result: 187 to 193 °C

Problem: // lookup melting point for O=C(Nc1ccc(F)c(F)c1)NC1CC23CCCCC2(CC(O)C3)C1 (mixture of isomers) [8-syn-26]
Result: 171 to 178 °C

Problem: // lookup melting point for COc1ccc(C)cc1NC(=O)N(Cc1ccccc1)C1CC23CCCCC2(CC(=O)C3)C1 (stereo not drawn) [syn-21]
Result: 168 to 170 °C

Problem: // lookup melting point for CN(C)c1ccc(CNC2CC34CCCCC3(CCC4)C2)cc1 (stereo not drawn)
Result: 89 to 91 °C

Problem: // lookup melting point for c1ccc2c(CCNC3CC45CCCCC4(CCC5)C3)c[nH]c2c1 (stereo not drawn)
Result: 109 to 111 °C

Problem: // lookup melting point for OC1CC23CCCCC2(C1)CC(NCc1ccccc1)C3 (mixture of isomers) [11-anti-13]
Result: 121 to 123 °C

Problem: // lookup melting point for C1CCC(CNC2CC34CCCCC3(CCC4)C2)CC1 (stereo not drawn)
Result: 108 to 111 °C

Problem: // lookup melting point for COc1ccc(C)cc1NC(=O)NC1CC23CCCCC2(CCC3)C1 (stereo not drawn) [23c]
Result: 215 to 220 °C

Problem: // lookup melting point for COc1ccc(C)cc1NC(=O)N(Cc1ccccc1)C1CC23CCCCC2(CC(=O)C3)C1 (stereo not drawn) [anti-21]
Result: 133 to 136 °C

Problem: // lookup melting point for O=C(Nc1ccc(F)c(F)c1)NC1CC23CCCCC2(CCC3)C1 (stereo not drawn) [23d]
Result: 168 to 175 °C

Problem: // lookup melting point for COc1ccc(C)cc1NC(=O)OC1CC23CCCCC2(CC(NCCCN)C3)C1 (stereo not drawn) [8-anti-4r]
Result: 74 to 76 °C
